The measured values listed here are drawn from patent US20070212355A1.

Target: mutated human GLP-2R (human) (UniProt O95838)
Sequence (O95838 other isoform, or with tags, fused parts or gaps, change not shown): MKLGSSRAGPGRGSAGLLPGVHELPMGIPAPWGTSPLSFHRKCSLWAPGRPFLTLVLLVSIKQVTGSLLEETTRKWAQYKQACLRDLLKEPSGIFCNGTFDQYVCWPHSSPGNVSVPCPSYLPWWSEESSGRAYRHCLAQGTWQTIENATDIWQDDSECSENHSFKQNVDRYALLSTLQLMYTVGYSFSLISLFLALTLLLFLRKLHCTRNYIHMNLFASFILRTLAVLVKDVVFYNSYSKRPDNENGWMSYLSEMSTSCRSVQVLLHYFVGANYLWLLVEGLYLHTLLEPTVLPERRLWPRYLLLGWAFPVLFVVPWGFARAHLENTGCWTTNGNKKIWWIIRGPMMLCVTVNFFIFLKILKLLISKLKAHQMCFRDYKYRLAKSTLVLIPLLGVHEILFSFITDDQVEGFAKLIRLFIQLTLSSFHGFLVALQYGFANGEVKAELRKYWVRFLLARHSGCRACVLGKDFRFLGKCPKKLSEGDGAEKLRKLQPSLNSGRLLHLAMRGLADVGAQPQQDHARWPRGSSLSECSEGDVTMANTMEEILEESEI
Assay: cell-based or functional assay
Ends that are not written are not given here.
Output: class label from EC50 (nM), cAMP expression assay. Mapping: L = under 5 nM, M = from 5 nM up to 10 nM, H = 10 nM and over

>  <Binder>
GLP-2 mimetibody Pro substitution variant SEQ ID NO: 42 (Fc fusion, not shown: a dimerising Fc or GST) HGDGSFSDEMNTILDNLAARDFINWLIQTKITDGSGGGSGALVPVSSESKYGPPCPPCP

>  <Qualitative Label>
L

$$$$
>  <Binder>
GLP-2 mimetibody Pro substitution variant SEQ ID NO: 44 (Fc fusion, not shown: a dimerising Fc or GST) HGDGSFSDEMNTILDNLAARDFINWLIQTKITDGSGGGSGALVAVSPESKYGPPCPPCP

>  <Qualitative Label>
M

$$$$
>  <Binder>
GLP-2 mimetibody Pro substitution variant SEQ ID NO: 43 (Fc fusion, not shown: a dimerising Fc or GST) HGDGSFSDEMNTILDNLAARDFINWLIQTKITDGSGGGSGALVAVPSESKYGPPCPPCP

>  <Qualitative Label>
L

$$$$
>  <Binder>
HGDGSFSDEMNTILDNLAARDFINWLIQTKITDGGGGSGGGGSCPPCP (Fc fusion, part only; not given: Fc CH2 and CH3 domains, part only, cysteine pairing not given here; also: partial core, CH2-CH3 domains follow in the full mimetibody) [A2G GLP-2 mimetibody linker length variant SEQ ID NO: 7]

>  <Qualitative Label>
H

$$$$
>  <Binder>
A2G GLP-2 mimetibody linker length variant SEQ ID NO: 8 (Fc fusion, part only; not given: CH2 and CH3 domains, part only, cysteine pairing not given here; also: partial core, CH2-CH3 domains follow in the full mimetibody) chain, part: HGDGSFSDEMNTILDNLAARDFINWLIQTKITDGGGGSGGGGSGGGGSCPPCP

>  <Qualitative Label>
H

$$$$
>  <Binder>
HGDGSFSDEMNTILDNLAARDFINWLIQTKITDGGGGSCPPCP (Fc fusion, part only; not given: CH2 and CH3 domains, part only, cysteine pairing not given here; also: partial core, CH2-CH3 domains follow in the full mimetibody) [A2G GLP-2 mimetibody linker length variant SEQ ID NO: 6]

>  <Qualitative Label>
H

$$$$
>  <Binder>
A2G GLP-2 mimetibody linker length variant SEQ ID NO: 9 (Fc fusion, part only; not given: CH2 and CH3 domains, part only, cysteine pairing not given here; also: partial core, CH2-CH3 domains follow in the full mimetibody) chain, part: HGDGSFSDEMNTILDNLAARDFINWLIQTKITDGGGGSGGGGSGGGGSGGGGSCPPCP

>  <Qualitative Label>
L

$$$$
>  <Binder>
GLP-2 mimetibody Pro substitution variant SEQ ID NO: 45 (Fc fusion, not shown: a dimerising Fc or GST) HGDGSFSDEMNTILDNLAARDFINWLIQTKITDGSGGGSGALVAVSSESKPGPPCPPCP

>  <Qualitative Label>
M

$$$$
>  <Binder>
A2G GLP-2 mimetibody V2 region variant SEQ ID NO: 11 (Fc fusion, not shown: a dimerising Fc or GST) HGDGSFSDEMNTILDNLAARDFINWLIQTKITDGSGGGSGALVAVSSESKYGPPCPPCP

>  <Qualitative Label>
L

$$$$
